- System: MAGI-CCR5 cells viability, CellTiter-Glo ATP luminescence
- experimental details: MAGI-CCR5 and HeLa-R5-16 cytotoxicity, dose response, cytotoxicity control for HIV-1 fusion inhibitor project, cell-based, MAGI and MAGI-HeLa co-culture (AID 2286);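 also: cells exposed to compound for at least 64 h before ATP readout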;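 as to viability: 100% = median of DMSO vehicle wells with no ATP signal meaning 0%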
- measurement conditions: measured here: MAGI + HeLa-R5-16 co-culture viability
Reported CC50 by item:
Write it as a number; the unit µM goes unstated.

Check out these entries, answers already filled in.
CCOc1cc(/C=C2\C(=O)N(c3cccc(C(=O)O)c3)N=C2C(F)(F)F)ccc1OCC(=O)Nc1ccccc1OC; 47.3
O=C(O)c1cccc2c1NC(c1cccc([N+](=O)[O-])c1)C1CC(Sc3ccccc3[N+](=O)[O-])C(Cl)C21 (configuration not stated); 47.9

[in] State the recorded CC50 for this entry: CCCCCC(=O)Cc1cc(O)cc2c1C(=O)Oc1cc(O)c(C(=O)O)c(CCCCC)c1O2
[out] 46.7

###

log10(CC50) reference
- System: MAGI-CCR5 cells viability, CellTiter-Glo ATP luminescence
- experimental details: MAGI-CCR5 and HeLa-R5-16 cytotoxicity, dose response, cytotoxicity control for HIV-1 fusion inhibitor project, cell-based, MAGI and MAGI-HeLa co-culture (AID 2286);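 also: cells exposed to compound for at least 64 h before ATP readout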;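 as to viability: 100% = median of DMSO vehicle wells with no ATP signal meaning 0%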
- measurement conditions: measured here: MAGI + HeLa-R5-16 co-culture viability
Please interpret these as log10 of CC50 where CC50 is in µM.

In the examples that follow, each entry is paired with its recorded log10(CC50).
O=[N+]([O-])c1cccc(S(=O)(=O)Nc2nc3ccccc3nc2Nc2cccc(S(=O)(=O)N3CCCCC3)c2)c1; 1.15
O=S(=O)(Nc1nc2ccccc2nc1Nc1cccc(S(=O)(=O)N2CCCCC2)c1)c1ccccc1; 1.27
N#C/C(=C\c1ccc(O)c([N+](=O)[O-])c1)c1nc2ccccc2s1; 1.64

[in] Look at this compound and give its reported log10(CC50). O=C(O)C1Nc2c(O)cccc2C2C=CCC12 (stereo not drawn)
[out] 1.35

[in] Given CCCCCCCCCCCCCCCCn1cc[n+](CC(C)=O)c1 , state its recorded log10(CC50).
[out] 0.32

[in] Report log10(CC50) for COc1ccc(C(=O)/C=C/c2ccc(-c3ccccc3)cc2)cc1CSCC(=O)O please.
[out] 1.37

[in] # input compound: COc1ccc(S(=O)(=O)Nc2ccccc2C(=O)Nc2nc(-c3ccc(F)cc3)cs2)cc1OC ; wanted: its log10(CC50)
[out] 1.17

[in] Any idea what log10(CC50) was measured for O=C(Nc1cc(S(=O)(=O)N2CCCCC2)ccc1Cl)c1ccccc1NS(=O)(=O)c1ccc(F)cc1 ?
[out] 0.87

###

- experimental details: MAGI-CCR5 and HeLa-R5-16 cytotoxicity, dose response, cytotoxicity control for HIV-1 fusion inhibitor project, cell-based, MAGI and MAGI-HeLa co-culture (AID 2286);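 also: cells exposed to compound for at least 64 h before ATP readout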;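 as to viability: 100% = median of DMSO vehicle wells with no ATP signal meaning 0%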
- measurement conditions: MAGI-CCR5 cells viability, CellTiter-Glo ATP luminescence; at 50 µM (top of the series)
Quick list: viability per entry.
Answer in %, number only, no unit symbol.

Record excerpt, results attached:
O=C(NCc1ccccc1)c1ccc2c(=O)[nH]c3c(C(=O)NCC4CCCO4)sc(=S)n3c2c1 (stereo not drawn); 86.3
COc1ccc(-c2cc(-c3ccc(Cl)cc3)c(C#N)c(SCC(=O)O)n2)cc1; 82.1
O=C1NN(c2ccc(F)c(Cl)c2)C(=O)/C1=C\c1cccc(OC(=O)c2cccs2)c1; 92.7
CCN1C(=O)/C(=C\c2ccc(-c3ccc([N+](=O)[O-])cc3OC)o2)SC1=Nc1cccc(C(=O)O)c1; 88.3
O=c1/c(=C\c2cc([N+](=O)[O-])cc([N+](=O)[O-])c2O)sc2nc3ccccc3n12; 104
COc1ccc(C(=O)Nc2ccccc2C(=O)O)cc1NC(=O)C(c1ccccc1)c1ccccc1; 99.7
O=C(N/N=C/c1cc(Cl)cc([N+](=O)[O-])c1O)c1ccccc1NS(=O)(=O)c1cccs1; 96.6
COc1ccc(-c2csc(NC(=O)CSc3nc(C)nc4sc(C(=O)O)c(C)c34)n2)cc1; 99.7

[in] Please look up its viability: COc1cc(/C=N/NS(=O)(=O)c2ccc3ccccc3c2)ccc1OCc1ccc(C(=O)O)cc1
[out] 93.7

[in] Request the reported viability associated with O=C(O)c1[nH]c2ccccc2c1C(c1cccc(O)c1)c1c(C(=O)O)[nH]c2ccccc12
[out] 91.2

[in] Tell me the measured viability of CC(c1ccccc1)N1C(=O)c2ccc(C(=O)Nc3ccc(Br)cc3C(=O)O)cc2C1=O (stereo not drawn) , please.
[out] 96.8

[in] State the recorded viability for this entry: O=C(Nc1ccc(Br)cc1C(=O)O)c1ccc2c(c1)C(=O)N(Cc1ccccc1)C2=O
[out] 105

[in] Look at this compound and give its reported viability. Cc1ccc(-c2cc(C(=O)Nc3ccc(S(=O)(=O)Nc4onc(C)c4C)cc3)c3ccccc3n2)cc1
[out] 98.7

[in] Reported viability for O=C(O)c1ccc(NS(=O)(=O)c2ccc3c(c2)C2C=CCC2C(c2ccccc2F)N3)cc1 (stereo not drawn) : what is it?
[out] 102

[in] Which viability value belongs to COc1ccc(OC)c(/C=C2\SC(=S)N(NS(=O)(=O)c3ccc(C)cc3)C2=O)c1 ?
[out] 101

[in] Reported viability for CC(/C=C1\SC(=S)N(c2ccc(C(=O)O)cc2)C1=O)=C\c1ccccc1 : what is it?
[out] 99.7

[in] # input compound: CCOC(=O)C1=C(C)N=c2s/c(=C/c3ccc(OCC(=O)O)cc3)c(=O)n2C1c1ccc(SC)cc1 (stereo not drawn) ; wanted: its viability
[out] 88.1

[in] Look up viability for this compound: COc1ccc(NS(=O)(=O)c2ccc3c(c2)[C@H]2C=CC[C@H]2[C@@H](c2ccc(C(=O)O)cc2)N3)cc1
[out] 99.7

[in] Sample O=C(O)CSc1cc(C(=O)c2ccccc2O)cn2c(=O)c3c4c(sc3nc12)CCCC4 — what was its viability?
[out] 93.2

[in] What value of measured viability is listed for O=C1NC(=S)N(c2ccc(F)cc2)C(=O)/C1=C/c1ccco1 ?
[out] 131

[in] Endpoint output: viability of O=C(O)CCN1C(=O)/C(=C\c2cccc(Oc3ccccc3)c2)SC1=S . Value?
[out] 87.3

[in] # lookup: viability of COc1cc(OC)c2c(O)c3c(c(-c4c5c(c(O)c6c(OC)cc(OC)cc46)CO[C@@H](C)[C@H]5O)c2c1)[C@H](O)[C@H](C)OC3
[out] 103

[in] Would you mind telling me what viability value was observed for O=C(CN1C(=O)/C(=C2\SC(=S)N(CCS(=O)(=O)O)C2=O)c2ccccc21)Nc1cccc(Br)c1 ?
[out] 83.3

###

The compounds listed here are annotated with their minimum viability.
- experimental details: MAGI-CCR5 and HeLa-R5-16 cytotoxicity, dose response, cytotoxicity control for HIV-1 fusion inhibitor project, cell-based, MAGI and MAGI-HeLa co-culture (AID 2286);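 also: cells exposed to compound for at least 64 h before ATP readout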;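 as to viability: 100% = median of DMSO vehicle wells with no ATP signal meaning 0%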
- measurement conditions: MAGI-CCR5 cells viability, CellTiter-Glo ATP luminescence; measured here: MAGI minimum viability across doses; at 6.25 µM; stronger effect = lower value
API: value field is a number in %; no unit string.

Before answering, review these 2 worked examples.
O=C(Nc1cc(C(=O)Nc2ccccc2C(=O)O)cc(C(=O)Nc2ccccc2C(=O)O)c1)c1ccccc1; 90.9
COc1ccc(C(=O)Nc2ccccc2C(=O)O)cc1NC(=O)C(c1ccccc1)c1ccccc1; 89.1

// next item, minimum viability requested
[in] Which minimum viability value belongs to O=C1NC(=O)/C(=C/c2ccc(-c3cc(C(=O)O)ccc3Cl)o2)S1 ?
[out] 88.5

###

- System: MAGI-CCR5 cells viability, CellTiter-Glo ATP luminescence
- experimental details: MAGI-CCR5 and HeLa-R5-16 cytotoxicity, dose response, cytotoxicity control for HIV-1 fusion inhibitor project, cell-based, MAGI and MAGI-HeLa co-culture (AID 2286);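 also: cells exposed to compound for at least 64 h before ATP readout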;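 as to viability: 100% = median of DMSO vehicle wells with no ATP signal meaning 0%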
- measurement conditions: measured here: MAGI + HeLa-R5-16 co-culture viability
Measured CC50 values are reported for all entries that follow.

Here's what some known entries look like.
COc1ccc2c(c1)cc(C(=O)N/N=C/c1c(O)c(C(=O)O)cc3ccccc13)n2C; > 50 µM
CCc1ccc(S(=O)(=O)/N=C2\C=C(NS(=O)(=O)c3ccccc3)C(=O)c3ccccc32)cc1; > 50 µM
O=C(O)COc1ccc(/C=C/C(=O)c2ccc(C3CCCCC3)cc2)cc1; > 50 µM
CCOc1cc(/C=C2/C(=N)N3C(=NC2=O)SN=C3S(C)(=O)=O)ccc1OS(=O)(=O)c1ccccc1; > 50 µM
CC(C)(C)c1ccc(S(=O)(=O)/N=C2\C=C(NS(=O)(=O)c3ccccc3)C(=O)c3ccccc32)cc1; > 50 µM

[in] Which CC50 is listed for O=C(N/N=C/c1cc(Cl)cc([N+](=O)[O-])c1O)NC12CC3CC(CC(C3)C1)C2 ?
[out] > 50 µM

[in] What CC50 value was documented for this compound, O=C1NC(=Nc2ccccc2Cl)S/C1=C\c1cccc([N+](=O)[O-])c1O ?
[out] > 50 µM

[in] Value lookup for CC50; key = O=C(NN1C(=O)/C(=C\c2ccc(O)c([N+](=O)[O-])c2)SC1=S)c1ccccc1Cl
[out] > 50 µM

[in] Give its CC50 value. Item: COc1ccc(/C=C2/SC(=S)N(CC(=O)O)C2=O)cc1OCc1ccc(Cl)cc1
[out] > 50 µM

[in] Need CC50, item COc1cc(/C=C2\C(=N)N3N=C(S(C)(=O)=O)SC3=NC2=O)ccc1OCCOc1ccccc1C
[out] 10 µM

[in] Entry C/C(=N\Nc1ccc(C(=O)O)cc1)c1ccc2c(c1)Nc1ccccc1S2 : reported CC50 = ?
[out] 26.2 µM

[in] Item Cc1c2c(=O)n(-c3nc4ccccc4s3)nc-2cc(O)n1Cc1ccccc1 has what recorded CC50?
[out] > 50 µM
